# System: WPMY1-GM130-SQSTM1
# method notes: phenotypically active (imaging signature differs from DMSO and reproducible) at any of 0.3-9 uM (binary (1 = active, 0 = inactive)); higher = active
# measurement setup: treatment time: 24 h
Your answer must be one of the following: T (active), F (inactive)

### Prompt Hi, sorry to bother you, what did the test record for `Cc1cc(C)cc(C(=O)NOCCCCCC(=O)NO)c1` ?
### Response T

### Prompt Recorded call for `COc1ccc(S(=O)(=O)N(C(C)=O)c2ccccc2/C=C/c2cc[n+]([O-])cc2)cc1` ?
### Response T

* * *

What lowest phenotypically active concentration was measured for each of the following?
# System: HepG2-TP53BP1-CLTA
# method notes: lowest phenotypically active concentration; higher = less potent
# measurement setup: treatment time: 24 h
Answers are plain numbers, in µM.

// below: answered molecules
CN(C)CC(=O)N1CCC[C@@H](n2nc(-c3ccc(Oc4ccccc4)cc3)c3c(N)ncnc32)C1 : 1
Cc1nc[nH]c1C1CCN(c2nc3cccc4c3n2CCC4=O)CC1 : 9
O=c1cc(-c2cccc3c2Sc2ccccc2S3)oc(N2CCOCC2)c1 : 9

Field: lowest phenotypically active concentration. Fill in for each record below.
1. CN1c2ccccc2C(=O)N2CCc3c([nH]c4ccccc34)[C@H]21 [Evodiamine]
2. COc1cc2nc(N3CCN(C(=O)C4COc5ccccc5O4)CC3)nc(N)c2cc1OC (stereo not drawn) [doxazosin]
3. Cc1cn(CCN2CCN(c3ccccc3-c3cc(C#N)cc(C(=O)NCCCN4CCCC4)c3)CC2)c2ccccc12

### Response
1. 3
2. 9
3. 3

* * *

# Test system: HepG2-CANX-COX4
# method notes: lowest phenotypically active concentration; higher = less potent
# measurement setup: treatment time: 24 h
Assign lowest phenotypically active concentration to each entry below.
Numbers only, in µM.

CC(C)CNc1nc(-c2cccc3ncccc23)cn2c(-c3ccc(C(=O)NC4CC4)cc3)cnc12 : 1

Would you kindly look at the next entry?
lowest phenotypically active concentration in this record for C=C1CC[C@@H]2[C@](C)(CO)[C@H](O)CC[C@@]2(C)[C@@H]1C/C=C1/C(=O)OC[C@H]1O [Andrographolide] : 3

* * *

Assignment: determine reported phenotypically active for the given compounds.
# System: HepG2-CANX-COX4
# method notes: phenotypically active (imaging signature differs from DMSO and reproducible) at any of 0.3-9 uM (binary (1 = active, 0 = inactive)); higher = active
# measurement setup: treatment time: 24 h
Answers are plain numbers.

Examples from the recorded data:
CCOc1cc(N2CCC(O)CC2)ccc1Nc1ncc2c(n1)N(C)c1ccccc1C(=O)N2C : 1
Nn1nnc2ccccc21 : 0
COc1cc([C@@H]2c3cc4c(cc3[C@@H](O[C@@H]3O[C@@H]5CO[C@@H](C)O[C@H]5[C@H](O)[C@H]3O)[C@H]3COC(=O)[C@H]23)OCO4)cc(OC)c1O [etoposide] : 1

Hi, could you look up phenotypically active for each item in my list?
1. O=c1cc(N2CCOCC2)oc2c(-c3cccc4c3sc3ccccc34)cccc12
2. N=C(N)NC(=N)NCCc1ccccc1
3. COc1cc(-c2cn(C)c(=O)c3cnccc23)c(OC)cc1CN(C)C
4. COc1cccc(-c2cc(F)ccc2[C@H]2Cc3nc(N)nc(C)c3C(=O)N2)n1
5. CC(C)(C)c1cc(/C=C(\C#N)C(N)=S)cc(C(C)(C)C)c1O
6. Nc1nc(Cl)nc2c1ncn2[C@H]1C[C@H](O)[C@@H](CO)O1
7. CCc1c(C)[nH]c2c1C(=O)C(CN1CCOCC1)CC2 (stereo not given)

### Response
[1, 0, 0, 1, 1, 1, 0]

* * *

Give phenotypically active for every item shown.
# Tested on: HepG2-TP53BP1-CLTA
# method notes: phenotypically active (imaging signature differs from DMSO and reproducible) at any of 0.3-9 uM (binary (1 = active, 0 = inactive)); higher = active
# measurement setup: treatment time: 24 h
Structures can show the parent of a compound that is named as a salt.

Kindly give each listed record's phenotypically active.
1. CC(C)c1c(C(=O)Nc2ccccc2)c(-c2ccccc2)c(-c2ccc(F)cc2)n1CC[C@@H](O)C[C@@H](O)CC(=O)O
2. Oc1cccc(Nc2ccnc3cc(-c4cccc(CN5CCOCC5)c4)sc23)c1 [LCB 03-0110 dihydrochloride]
3. CC(C)c1cc(-c2n[nH]c(=O)n2-c2ccc3c(ccn3C)c2)c(O)cc1O
4. CCOC(=O)Nc1cc(-c2ccc(C)c(NS(C)(=O)=O)c2)nn2c(C)nnc12

### Response
1: 1 (active); 2: 1 (active); 3: 1 (active); 4: 1 (active)

* * *

# Tested on: HepG2-CANX-COX4
# method notes: phenotypically active (imaging signature differs from DMSO and reproducible) at any of 0.3-9 uM (binary (1 = active, 0 = inactive)); higher = active
# measurement setup: treatment time: 24 h
Where a name gives a salt, the structure may show the parent alone.
Allowed answers: active, inactive

COc1cc2nccc(Oc3ccc(NC(=O)NC4CC4)c(Cl)c3)c2cc1C(N)=O : inactive

### Prompt Entry `C=CCc1ccc(O)c(-c2ccc(O)c(CC=C)c2)c1` : call = ?
### Response inactive

### Prompt How was `N#C/C(=C(/N)Sc1ccc(N)cc1)c1ccccc1C(F)(F)F` classified in this test?
### Response active

### Prompt Entry CN1CCC(CN2c3ccccc3Sc3ccccc32)C1 (stereo not given) : call = ?
### Response inactive

### Prompt Any idea what this test logged for `CNC(=O)c1c(-c2ccc(F)cc2)oc2cc(N(CCO)S(C)(=O)=O)c(C3CC3)cc12` ?
### Response inactive

### Prompt Would you mind telling me which call this test gave C[C@@H](Nc1ncnc2[nH]c(-c3ccc(O)cc3)cc12)c1ccccc1 [PKI 166 hydrochloride] ?
### Response active

### Prompt Which outcome was entered for the compound `CN1C(=O)OC(C)(C)C1=O` in this test?
### Response inactive

### Prompt Would you mind telling me which call this test gave `COc1cc2ncnc(Nc3ccc(Cl)cc3F)c2cc1OC` ?
### Response inactive

### Prompt Any idea what this test logged for `NC(=O)c1cccc(-c2cccc(OC(=O)NC3CCCCC3)c2)c1` ?
### Response inactive

### Prompt Called result for `CC[C@@H](N)CNc1ccnc(-c2cc(-c3cnn(C)c3)ccc2O)n1`
### Response active

* * *

# System: HepG2-CANX-COX4
# method notes: phenotypically active (imaging signature differs from DMSO and reproducible) at any of 0.3-9 uM (binary (1 = active, 0 = inactive)); higher = active
# measurement setup: treatment time: 24 h
Where a name gives a salt, the structure may show the parent alone.
I'd be grateful if you could share measured phenotypically active for these entries.

Before answering, review these 6 worked examples.
NS(=O)(=O)c1cc2c(cc1Cl)NC(C(Cl)Cl)NS2(=O)=O (stereo not drawn) [trichlormethiazide] : 0 (inactive)
Cc1cn(CCN2CCN(c3ccccc3-c3cc(C#N)cc(C(=O)NCCCN4CCCC4)c3)CC2)c2ccccc12 : 1 (active)
c1cc(-c2cc(C3CCNCC3)[nH]n2)ccn1 : 1 (active)
CC(C)n1c(/C=C/[C@@H](O)C[C@@H](O)CC(=O)O)c(-c2ccc(F)cc2)c2ccccc21 [fluvastatin] : 1 (active)
CCOC(=O)CCNc1cc(N2CCc3ccccc3CC2)nc(-c2cccnc2)n1 : 0 (inactive)
COCC(=O)N[C@@H](Cc1ccc(-c2cc(Cl)cc(Cl)c2)cc1)[C@H](O)[C@@H](O)C(=O)O : 0 (inactive)

Parameters: items (list). Returns: phenotypically active for each item.
1. CCOc1nc(NC(=O)Cc2cc(OC)ccc2OC)cc(N)c1C#N
2. CC(C)C1=CC2=CCC3[C@](C)(CCC[C@]3(C)C(=O)O)C2CC1 (stereo partly drawn) [Abietic Acid]
3. CC[C@@H]1C(=O)N(C)c2cnc(Nc3ccc(C(=O)NC4CCN(C)CC4)cc3OC)nc2N1C1CCCC1
4. CC(C)(C)n1nc(-c2ccc(Cl)cc2)c2c(N)ncnc21
5. O=[N+]([O-])c1cc([N+](=O)[O-])c(/C=C/c2ccc(Cl)c(Cl)c2)cc1/C=C/c1ccc(Cl)c(Cl)c1
6. C[C@H]1C[C@@H]2[C@H]([C@@H](O)C[C@@]3(C)[C@H]2CC[C@]3(O)C(=O)CO)[C@@]2(C)C=CC(=O)C=C12 [methylprednisolone]
7. CCCC(=O)O[C@]1(C(=O)COC(C)=O)CC[C@H]2[C@@H]3C[C@H](F)C4=CC(=O)C=C[C@]4(C)[C@@]3(F)[C@@H](O)C[C@@]21C [difluprednate]

### Response
1: 0 (inactive); 2: 0 (inactive); 3: 1 (active); 4: 0 (inactive); 5: 0 (inactive); 6: 0 (inactive); 7: 0 (inactive)

Each of the following entries comes with a recorded value; kindly state phenotypically active for each.
1. Cc1ccc(S(=O)(=O)/C=C/C#N)cc1
2. Cc1ccccc1Sc1ccc(/C=C2/SC(=S)NC2=O)cc1[N+](=O)[O-]
3. Brc1c(Br)c(Br)c2[nH]nnc2c1Br
4. CC(=O)/N=c1/sc(S(N)(=O)=O)nn1C [methazolamide]
5. CC[N@@+]1(C)[C@@H]2CC[C@H]1C[C@@H](OC(=O)[C@]1(c3ccccc3)CC[C@H](C(=O)O[C@H]3C[C@H]4CC[C@@H](C3)[N@+]4(C)CC)c3ccccc31)C2 [beta- Belladonnine dichloroethylate]
6. C=C1CC[C@H](O)C/C1=C\C=C1\CCC[C@]2(C)[C@@H]([C@H](C)/C=C/[C@H](C)C(C)C)CC[C@@H]12 [Calciferol]
7. O=C1c2ccccc2C(Cc2ccncc2)(Cc2ccncc2)c2ccccc21
8. Cc1cc2cc(NS(=O)(=O)c3ccc(C#N)cc3)ccc2n(C)c1=O

### Response
1: 0 (inactive); 2: 0 (inactive); 3: 0 (inactive); 4: 0 (inactive); 5: 0 (inactive); 6: 0 (inactive); 7: 0 (inactive); 8: 0 (inactive)

# batch: return phenotypically active for each of the 3 molecules below
1. O=C1CN2Cc3c(ccc(Cl)c3Cl)N=C2N1 [Anagrelide hydrochloride]
2. CC(=O)OCC(=O)[C@@]12OC3(CCCC3)O[C@@H]1C[C@H]1[C@@H]3CCC4=CC(=O)C=C[C@]4(C)[C@@]3(F)[C@@H](O)C[C@@]12C [amcinonide]
3. CCOc1ccccc1OCCN[C@H](C)Cc1ccc(OC)c(S(N)(=O)=O)c1 [tamsulosin]

### Response
0 (inactive)
0 (inactive)
0 (inactive)
